# System: MDA-MB-231
# protocol: drug sensitivity score (DSS), CellTiter-Blue viability (DSS (AUC-based score)); higher = stronger viability inhibition; extreme values may be limits of the assay
# conditionDetails: incubation time: 72 h
Recorded drug sensitivity score by entry
observationType: drug sensitivity score

compound="CC[C@@H]1C(=O)OC[C@@H]1Cc1cncn1C [Pilocarpine]" observationtype="drug sensitivity score" reportedresult=0
compound="Cc1sc2c(c1C)C(c1ccc(Cl)cc1)=N[C@@H](CC(=O)OC(C)(C)C)c1nnc(C)n1-2 [(+)JQ1]" observationtype="drug sensitivity score" reportedresult=12.9
compound="Nc1ncn([C@@H]2O[C@H](CO)[C@@H](O)[C@H]2O)c(=O)n1 [Azacitidine]" observationtype="drug sensitivity score" reportedresult=0
compound=CC(=O)c1c(C)c2cnc(Nc3ccc(N4CCNCC4)cn3)nc2n(C2CCCC2)c1=O observationtype="drug sensitivity score" reportedresult=9.09
compound="Cn1cnc2c(F)c(Nc3ccc(Br)cc3Cl)c(C(=O)NOCCO)cc21 [Selumetinib]" observationtype="drug sensitivity score" reportedresult=13.7
compound="COc1cc(F)c(F)c(Nc2ccc(I)cc2F)c1NS(=O)(=O)C1(C[C@H](O)CO)CC1 [RDEA119]" observationtype="drug sensitivity score" reportedresult=18.7
